Values from patent US11590092B2

- System: P. acnes
- methodDescription: MBC assays of SCFAs against P. acnes
- Type: cell-based, Propionibacterium acnes
- measurementContext: Cutibacterium acnes; P. acnes 10^8 CFU/ml, overnight, 99.9% killing level
experimentalEndpoint: MBC
Reply with a number, then the unit it belongs to.

Guide cases for MBC, answers given:
molecule | MBC
CC(O)C(=O)O (stereo not shown) | 10 mM
O=C(O)CCC(=O)O | 5 mM
CC(=O)O | 7.5 mM

Data request: # query: MBC of entry CCCC(=O)O
Data returned: 10 mM
